Data origin, for the record: ChEMBL document CHEMBL3044672

# Tested on: SN12C
# protocolText: Cytotoxicity against Homo sapiens (human) SN12C cells after 48 hr by sulforhodamine B assay
# Format: functional
Measured GI50 determines class: range 1 = under 2 µM, range 2 = from 2 µM up to 3 µM, range 3 = 3 µM and over

>>> discretelabel("ClCc1ccc(Cn2cnc3nc(Cl)nc(Cl)c32)cc1")
"range 1"
>>> discretelabel("Nc1nc(Cl)c2ncn(Cc3cccc(CCl)c3)c2n1")
"range 3"
>>> discretelabel("ClCc1ccccc1Cn1cnc2c(Cl)ncnc21")
"range 3"
>>> discretelabel("ClCc1cccc(Cn2cnc3c(Cl)ncnc32)c1")
"range 2"
>>> discretelabel("ClCc1ccc(Cn2cnc3c(Cl)nc(Cl)nc32)cc1")
"range 3"
>>> discretelabel("ClCc1cccc(Cn2cnc3ncnc(Cl)c32)c1")
"range 3"
>>> discretelabel("ClCc1cccc(Cn2cnc3c(Cl)nc(Cl)nc32)c1")
"range 2"
>>> discretelabel("ClCc1ccc(Cn2cnc3c(Cl)ncnc32)cc1")
"range 1"
>>> discretelabel("ClCc1ccccc1Cn1cnc2c(Cl)nc(Cl)nc21")
"range 1"
>>> discretelabel("ClCc1ccc(Cn2cnc3ncnc(Cl)c32)cc1")
"range 3"

QUERY: Any idea which band ClCc1cccc(Cn2cnc3nc(Cl)nc(Cl)c32)c1 is in?
RESULT: range 1

QUERY: Any idea which band ClCc1ccccc1Cn1cnc2nc(Cl)nc(Cl)c21 is in?
RESULT: range 1

* * *

Each record here notes measured log10 LC50 (concentration killing 50% of cells).
# protocolText: Cytotoxicity against Homo sapiens (human) NCI-ADR-RES cells after 48 hr by sulforhodamine B assay
# Type: functional
All values: log10 LC50 (concentration killing 50% of cells) [µM].

QUERY: Supply measured log10 LC50 (concentration killing 50% of cells) of Nc1nc(Cl)c2ncn(Cc3cccc(CCl)c3)c2n1 in your reply.
RESULT: 1.88

QUERY: Supply measured log10 LC50 (concentration killing 50% of cells) of ClCc1ccccc1Cn1cnc2c(Cl)ncnc21 in your reply.
RESULT: 1.02

QUERY: Supply measured log10 LC50 (concentration killing 50% of cells) of ClCc1ccc(Cn2cnc3c(Cl)ncnc32)cc1 in your reply.
RESULT: 1.59

QUERY: Supply measured log10 LC50 (concentration killing 50% of cells) of ClCc1ccccc1Cn1cnc2ncnc(Cl)c21 in your reply.
RESULT: 0.82

QUERY: Supply measured log10 LC50 (concentration killing 50% of cells) of ClCc1ccccc1Cn1cnc2c(Cl)nc(Cl)nc21 in your reply.
RESULT: 0.79

QUERY: Supply measured log10 LC50 (concentration killing 50% of cells) of ClCc1cccc(Cn2cnc3ncnc(Cl)c32)c1 in your reply.
RESULT: 1.91

QUERY: Supply measured log10 LC50 (concentration killing 50% of cells) of ClCc1ccc(Cn2cnc3ncnc(Cl)c32)cc1 in your reply.
RESULT: 1.19

QUERY: Supply measured log10 LC50 (concentration killing 50% of cells) of ClCc1cccc(Cn2cnc3c(Cl)ncnc32)c1 in your reply.
RESULT: 1.57

* * *

Each record here notes measured TGI.
# Test system: HCT-116
# protocolText: Cytotoxicity against Homo sapiens (human) HCT116 cells after 48 hr by sulforhodamine B assay
# Type: functional
# assayConditions: HCT-116, 48 h
Value expressed in µM; do not type the unit.

>>> reportedvalue("ClCc1cccc(Cn2cnc3c(Cl)nc(Cl)nc32)c1")
3.09
>>> reportedvalue("ClCc1ccc(Cn2cnc3c(Cl)nc(Cl)nc32)cc1")
3.63
>>> reportedvalue("ClCc1cccc(Cn2cnc3nc(Cl)nc(Cl)c32)c1")
1.99
>>> reportedvalue("ClCc1ccccc1Cn1cnc2c(Cl)ncnc21")
3.71
>>> reportedvalue("ClCc1ccccc1Cn1cnc2c(Cl)nc(Cl)nc21")
0.38

QUERY: Supply measured TGI of ClCc1ccc(Cn2cnc3c(Cl)ncnc32)cc1 in your reply.
RESULT: 2.45
